Tested on: RXF-631 renal
assayMethodText: NCI tumour cell line growth inhibition, 48 h

# molecule, system, TGI
measured = [
    ("c1cc[c]([Sn]([S]c2cccc3cccnc23)([S]c2cccc3cccnc23)[c]2ccccc2)cc1", "RXF-631 renal", "0.324 µM"),
    ("COc1ccc(NC(=O)CC(=O)N/N=C/c2ccc(N(CCC#N)S(=O)(=O)c3ccccc3)cc2)cc1", "RXF-631 renal", "> 100 µM"),
    ("COC(=O)c1ccccc1NC(=O)C(=O)CC(=O)CC(c1ccccc1)c1c(O)c2ccccc2oc1=O (centres undefined)", "RXF-631 renal", "> 100 µM"),
    ("BrC1=CC=C2NCCCCCCN=C3C=CC(Br)=CC=C3NCCCCCCN=C2C=C1", "RXF-631 renal", "> 25.5 µM"),
    ("COc1cc2c([C@@H](OC(=O)c3ccccc3)c3ccc4c(c3)OCO4)nccc2c(OC)c1OC", "RXF-631 renal", "> 100 µM"),
    ("COc1cc(C)c(C)c(OC(=O)c2c(C)c(C)c(OC)c(C)c2OC)c1C", "RXF-631 renal", "69.1 µM"),
    ("CC1CCP(=O)(c2ccccc2)CC1 (centres undefined)", "RXF-631 renal", "> 100 µM"),
    ("CC(=O)Oc1ccc(CO)cc1OC(C)=O", "RXF-631 renal", "> 100 µM"),
    ("CC(C(=O)c1ccc(Cl)cc1)C1OC(=O)C(Cl)=C1Cl (centres undefined)", "RXF-631 renal", "> 100 µM"),
]

---

System: SK-OV-3 ovarian
assayMethodText: NCI tumour cell line growth inhibition, 48 h
endpoint: TGI

# molecule, endpoint, measurement
records = [
    ("O=C(Cn1c2ccc(Br)cc2c2nc3ccccc3nc21)N/N=C/c1ccccc1", "TGI", "> 100 µM"),
    ("COc1ccc(N=Nc2ccc3oc(=O)c(C(=O)Nc4ccc(Cl)cc4)cc3c2)cc1", "TGI", "> 10 µM"),
    ("O=C1CCCCCC1CC(Sc1ccccc1)Sc1ccccc1 (stereo not given)", "TGI", "> 100 µM"),
    ("c1cc(-c2cn[nH]c2)cc(-c2cn[nH]c2)c1", "TGI", "37.5 µM"),
    ("O=[N+]([O-])[O-].O=[N+]([O-])[O-].[Au].[Au].c1ccc([P-]c2ccccc2)cc1.c1ccc([P-]c2ccccc2)cc1", "TGI", "> 100 µM"),
    ("COc1cc2c(c(OC)c1OC)C(=O)[C@H](Br)[C@H]2NC(=O)NCCCl", "TGI", "> 100 µM"),
    ("Cc1cc(C)n(C(=O)c2nn(-c3ccc(Cl)cc3)cc2O)n1", "TGI", "66.1 µM"),
    ("CC(=O)c1sc(Nc2ccc(Cl)c(Cl)c2)nc1C", "TGI", "> 100 µM"),
    ("O=C(O)c1cc(O)c2c(c1)C([C@@H]1c3cccc(O)c3C(=O)c3c(O)cc(C(=O)O)cc31)c1cccc(O)c1C2=O (stereo not given in full)", "TGI", "> 100 µM"),
    ("Brc1ccc2c(c1)C1C(CO2)C(c2ccccc2)=NN1c1ccccc1 (stereo not given)", "TGI", "> 100 µM"),
]

---

Below is a list of entries, each paired with its recorded log10 TGI value.
Test system: UO-31 renal
assayMethodText: NCI tumour cell line growth inhibition, 48 h
endpoint: log10 TGI (log10 of the value in µM)

# smilesRepresentation, log10 TGI
measured = [
    ("COc1cc2cc(Oc3ccc(NC(=O)Nc4ccc(Cl)c(C(F)(F)F)c4)cc3)c(C)nc2cc1OC", 0.38),
    ("O=S(=O)(NCCNc1cc(-c2cn(-c3ccccc3)nc2-c2cccc(O)c2)ccn1)c1ccc(Cl)cc1", 1.08),
    ("C#C[C@]1(O)CC[C@H]2[C@@H]3CCC4=C/C(=N\\OCCN(CC)CC)CC[C@]4(C)[C@H]3CC[C@@]21C", 1.20),
    ("Cc1cc(C)n(C(=O)c2nn(-c3ccc(Cl)cc3)cc2O)n1", 1.28),
    ("OCC#Cc1ccccc1C#Cc1ccc(C#Cc2ccccc2C#CCO)s1", 1.56),
]

---

System: PC-3 prostate
assayMethodText: NCI tumour cell line growth inhibition, 48 h

# compound, TGI
records = [
    ("OCC#Cc1ccccc1C#Cc1ccc(C#Cc2ccccc2C#CCO)s1", "28.7 µM"),
    ("COc1ccc(CCNC(=O)CCc2ccccc2CO)cc1OC", "> 100 µM"),
    ("COc1cc2c(cc1C)NC(=O)/C2=C/c1c(Cl)n(-c2ccccc2)c2ccccc12", "> 100 µM"),
    ("O=[N+]([O-])c1ccc2c(c1)nc(Cc1ccc(Cl)cc1)n2C[C@@H]1CCCN2CCCCC12 (stereo partly specified)", "> 51.7 µM"),
    ("CNC(=O)CNC(=O)C(Cc1ccc(NC(=O)CCCCC(C)=O)cc1)NC(=O)C(CCC(=O)OCc1ccccc1)NC(=O)OC(C)(C)C (stereo unspecified)", "> 100 µM"),
    ("C[C@H](CCC(=O)O)[C@H]1CC[C@H]2[C@@H]3[C@H](O)C[C@@H]4C[C@H](O)CC[C@]4(C)[C@H]3CC[C@]12C", "> 100 µM"),
]

---

Test system: MCF7 breast
assayMethodText: NCI tumour cell line growth inhibition, 48 h; in the data active means GI50 below about 0.43 µM; inactive means the rest
Labels: yes (active), no (inactive)

# molecule, group
data = [
    ("Oc1c(I)cc(-c2nc3ccccc3s2)cc1CN(Cc1ccccn1)Cc1ccccn1", "yes"),
    ("COC(=O)C1(C2CC/C(C)=C/CC/C(C)=C/CC[C@@]3(C)O[C@@H]3C2)CC1 (stereo partly specified)", "no"),
    ("COc1cc(-c2cc(/C=C3\\C(=O)Nc4ccccc43)[nH]n2)cc(OC)c1OC", "no"),
    ("O=C(NNS(=O)(=O)c1ccc(F)cc1)c1cccnc1Nc1ccc(Cl)cc1Cl", "no"),
    ("Cc1cc(C)cc(Nc2ccc([N+](=O)[O-])c(NCCN3CCOCC3)n2)c1", "yes"),
    ("CC(=O)c1cc2c(c3ccsc13)-c1ccccc1CC2", "no"),
]

---

Tested on: SF-295 CNS
assayMethodText: NCI tumour cell line growth inhibition, 48 h
Where a SMILES comes first, the peptide text is derived from it.
Listed next: entries and their corresponding TGI.

# molecule, system, TGI
measured = [
    ("O[C@H]1[C@H]2[C@H](O)C[C@H](CCOCc3ccccc3)CN2C[C@H]1O", "SF-295 CNS", "> 100 µM"),
    ("COC(=O)C1(C2CC/C(C)=C/CC/C(C)=C/CC[C@@]3(C)O[C@@H]3C2)CC1 (some centres undefined)", "SF-295 CNS", "> 100 µM"),
    ("CC(/C=N\\NC(=S)N(C)C)=N/NC(=S)N(C)C", "SF-295 CNS", "> 100 µM"),
    ("COc1ccc(NS(=O)c2ccccc2OC)cc1 (centres undefined)", "SF-295 CNS", "> 100 µM"),
    ("NC(Cc1ccnnc1)C(=O)O (centres undefined)", "SF-295 CNS", "> 100 µM"),
    ("Brc1ccc2c(c1)C1C(CO2)C(c2ccccc2)=NN1c1ccccc1 (centres undefined)", "SF-295 CNS", "> 100 µM"),
    ("C#Cc1cccc(Oc2ccc(NC(=O)CCl)cc2)c1", "SF-295 CNS", "> 82.5 µM"),
    ("CC1(C)CCC[C@]2(C)[C@@H]1CC[C@@]13O[C@@H]1C1=C(CO)C(=O)OC1=C[C@@H]23", "SF-295 CNS", "44.9 µM"),
    ("COC1CC(CC2CCC(C)C(C(C)C(=O)O)O2)OC2(OC(C)(C3CCC(C)(C4OC(C5OC(O)(CO)C(C)CC5C)CC4C)O3)CC2C)C1C (centres undefined)", "SF-295 CNS", "11.6 µM"),
    ("Cc1sc(N)c(S(=O)(=O)c2ccccc2)c1C", "SF-295 CNS", "> 100 µM"),
    ("COC(=O)C[C@H](COCc1ccccc1)NC(=O)C[C@H](COCc1ccccc1)NC(=O)OC(C)(C)C", "SF-295 CNS", "> 100 µM"),
    ("Nc1ccc(-c2nc3cc(F)ccc3s2)cc1CO", "SF-295 CNS", "34.8 µM"),
    ("Oc1c(I)cc(-c2nc3ccccc3s2)cc1CN(Cc1ccccn1)Cc1ccccn1", "SF-295 CNS", "> 100 µM"),
    ("COc1cc(NCc2ccccc2O)c2ncccc2c1", "SF-295 CNS", "67.4 µM"),
    ("CC(=O)Oc1ccc(CO)cc1OC(C)=O", "SF-295 CNS", "> 100 µM"),
    ("O=C(O)c1cc(Cc2ccc(O)c(C(=O)O)c2)ccc1O (tested in a mixture with another compound)", "SF-295 CNS", "2.9 µM"),
    ("COc1ccc(C(=O)COc2cccc(/C=C3\\CSc4ccc(Cl)cc4C3=O)c2)cc1", "SF-295 CNS", "28.7 µM"),
    ("CS(=O)(=O)CCn1c(=O)c(Oc2ccc(F)cc2F)cc2cnc(NC3CCOCC3)nc21", "SF-295 CNS", "> 25 µM"),
    ("CC1(C)N=C(C(=O)c2ccccc2)N(O)C1(O)c1ccccc1 (centres undefined)", "SF-295 CNS", "> 100 µM"),
    ("CC(=O)c1cc2c(c3ccsc13)-c1ccccc1CC2", "SF-295 CNS", "> 100 µM"),
    ("Cc1nc2c(n1CCN(C)C)C(=O)c1ccccc1C2=O", "SF-295 CNS", "30.9 µM"),
    ("CC(=O)C(=[N+]=[N-])C(=O)OCCOC(=O)C(=[N+]=[N-])C(C)=O", "SF-295 CNS", "> 1 µM"),
    ("CCOC(=O)CCC(NC(=O)c1ccc(Nc2cnc3ccc(C(F)(F)F)cc3n2)cc1)C(=O)OCC (centres undefined)", "SF-295 CNS", "> 100 µM"),
    ("O=S(=O)(NC1OCCCC1I)c1ccccc1 (centres undefined)", "SF-295 CNS", "> 100 µM"),
    ("COC(=O)C1N=CSCC1(C)O (centres undefined)", "SF-295 CNS", "> 100 µM"),
    ("CCO/C(O)=C(/C(=N)N1CCCC1)C(=O)Nc1ccc(F)cc1", "SF-295 CNS", "> 100 µM"),
    ("S=C1N=C(Cl)/C(=C\\c2ccco2)N1", "SF-295 CNS", "> 100 µM"),
    ("COc1ccc2c(c1)cn1c3ccc(O)cc3[nH]c(=O)c21", "SF-295 CNS", "3.52 µM"),
    ("C1=CC(=[N+]2N=C(c3ccccc3)CC2c2ccccc2)C=CC1=C1SC(c2ccccc2)(c2ccccc2)c2ccccc21 (centres undefined)", "SF-295 CNS", "> 100 µM"),
    ("CCC(C)C(NC(=O)C1CCCN1C(=O)C(CC(C)C)NC(=O)C(CC(C)C)NC(=O)C(N)CC(C)C)C(=O)NC(C(=O)NCC(=O)NC(CC(N)=O)C(=O)NC(CC(C)C)C(=O)NC(CC(C)C)C(=O)NC(CC(C)C)C(N)=O)C(C)C (centres undefined) (H-LLLPIVGNLLL-NH2; configuration not given here)", "SF-295 CNS", "> 50 µM"),
    ("O=C(O)c1cc(O)c2c(c1)C([C@@H]1c3cccc(O)c3C(=O)c3c(O)cc(C(=O)O)cc31)c1cccc(O)c1C2=O (some centres undefined)", "SF-295 CNS", "> 100 µM"),
    ("CC(=O)Oc1cc(C)c(OC(C)=O)c2c1[C@H]1CC[C@]3(C)[C@@H](OC(C)=O)CC[C@H]3[C@@H]1CC2", "SF-295 CNS", "37.2 µM"),
    ("COc1cc(Cl)c2c3c(c(C(=O)c4ccccc4)oc13)CCC2", "SF-295 CNS", "> 100 µM"),
    ("CO[C@@]12C[C@H]3[C@@H]([C@@H](O)[C@@H](OC(=O)/C=C/c4ccccc4)[C@@]4(O)C(C)(C)CCC[C@]34C)[C@@H](C)C1=CC(=O)O2", "SF-295 CNS", "44.1 µM"),
    ("COc1cc2cc(Oc3ccc(NC(=O)Nc4ccc(Cl)c(C(F)(F)F)c4)cc3)c(C)nc2cc1OC", "SF-295 CNS", "2.91 µM"),
    ("CC(C)(CC#N)c1cc(CC(C)(C)c2cc(CC(C)(C)c3cc(C(C)(C)C4(C)OCCO4)no3)no2)no1", "SF-295 CNS", "> 100 µM"),
    ("Cc1cc(C)cc(Nc2ccc([N+](=O)[O-])c(NCCN3CCOCC3)n2)c1", "SF-295 CNS", "25.8 µM"),
    ("c1cc(-c2cn[nH]c2)cc(-c2cn[nH]c2)c1", "SF-295 CNS", "> 100 µM"),
    ("COC(CN(C=O)[C@@H](c1ccc(Cl)cc1)c1cc2ccccc2o1)OC", "SF-295 CNS", "31 µM"),
]

Each recorded value in this set is attributed to PubChem BioAssay (NCI).
